B1: library; numbered along this chain (parent)
chain: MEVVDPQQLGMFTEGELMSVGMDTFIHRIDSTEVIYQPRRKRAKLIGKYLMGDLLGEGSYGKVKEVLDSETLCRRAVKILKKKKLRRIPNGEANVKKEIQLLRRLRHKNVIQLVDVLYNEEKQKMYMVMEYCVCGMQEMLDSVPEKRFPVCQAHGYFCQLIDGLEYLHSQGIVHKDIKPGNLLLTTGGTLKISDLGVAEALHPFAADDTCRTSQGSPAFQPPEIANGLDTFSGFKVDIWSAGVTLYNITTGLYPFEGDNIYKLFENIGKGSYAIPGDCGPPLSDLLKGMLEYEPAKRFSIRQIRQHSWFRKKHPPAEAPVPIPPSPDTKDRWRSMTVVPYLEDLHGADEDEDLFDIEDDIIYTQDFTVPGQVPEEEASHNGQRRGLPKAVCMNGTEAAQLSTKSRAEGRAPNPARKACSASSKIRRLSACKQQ

Variants of: B1
Assay: STK11 functional score (HeLa growth suppression), rescaled enrichment; synonymous median = 1, nonsense median = 0 (normalised score)
Conditions: with HeLa; variant type: missense
property-label: STK11 functional score
# print the numeric value only

Example results:
[[record]]
mut = "N181L"
value_reported = -0.122

[[record]]
mut = "K262T"
value_reported = 1.08

[[record]]
mut = "V114R"
value_reported = 0.501

[[record]]
mut = "E349N"
value_reported = 1.48


Exercise: Give the measured STK11 functional score of `P203H` .
Key: 0.686

Exercise: Using the record for `A417N` , report its STK11 functional score.
Key: 1.55

Exercise: Looking for the measured STK11 functional score of `I361R` , can you help?
Key: 1.53
